Molecular target: BChE from Equus ferus (EfBChE) (Equus caballus, UniProt P81908)
Sequence (P81908 whole entry): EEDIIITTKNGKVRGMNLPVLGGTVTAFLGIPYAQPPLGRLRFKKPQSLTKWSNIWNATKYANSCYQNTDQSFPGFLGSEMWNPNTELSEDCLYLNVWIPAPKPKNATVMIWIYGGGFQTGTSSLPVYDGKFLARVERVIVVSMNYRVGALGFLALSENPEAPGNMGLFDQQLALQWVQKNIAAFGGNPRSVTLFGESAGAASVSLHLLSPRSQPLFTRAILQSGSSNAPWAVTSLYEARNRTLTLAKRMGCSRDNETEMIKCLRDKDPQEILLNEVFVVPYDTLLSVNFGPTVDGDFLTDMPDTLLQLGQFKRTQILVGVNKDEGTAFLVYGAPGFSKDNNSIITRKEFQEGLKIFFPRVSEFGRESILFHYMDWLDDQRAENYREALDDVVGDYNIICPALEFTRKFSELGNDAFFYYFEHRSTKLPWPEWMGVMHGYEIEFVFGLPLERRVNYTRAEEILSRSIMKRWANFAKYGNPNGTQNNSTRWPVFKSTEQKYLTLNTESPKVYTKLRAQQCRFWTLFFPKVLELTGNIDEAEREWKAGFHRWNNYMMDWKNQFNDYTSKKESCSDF
Experiment: Ellman cholinesterase assay, purified BChE from Equus ferus
Type: biochemical
Property name: IC50

[ask] # IC50 lookup, item C[N+]1(C)CCC2(CC1)Oc1ccccc1C1CC(c3ccc(-c4ccccc4)cc3)=NN12 (stereo not drawn) [F]
[reply] 32.9 µM

[ask] # IC50 lookup, item C[N+]1(C)CCC2(CC1)Oc1ccccc1C1CC(c3ccc4ccccc4c3)=NN12 (stereo not drawn) [G]
[reply] 9.51 µM

[ask] # IC50 lookup, item O=c1ccc2ccc(OCC[N+]34CCC(CC3)C(C(O)(c3ccccc3)c3ccccc3)C4)cc2o1 (stereo not drawn) [A]
[reply] 22.2 µM

* * *

Target: AChE from human erythrocytes (HsAChE) (Homo sapiens, UniProt P22303)
Construct: from tissue; host or cells: human erythrocyte ghosts from blood of healthy donors
Sequence (P22303 other isoform, or with tags, fused parts or gaps): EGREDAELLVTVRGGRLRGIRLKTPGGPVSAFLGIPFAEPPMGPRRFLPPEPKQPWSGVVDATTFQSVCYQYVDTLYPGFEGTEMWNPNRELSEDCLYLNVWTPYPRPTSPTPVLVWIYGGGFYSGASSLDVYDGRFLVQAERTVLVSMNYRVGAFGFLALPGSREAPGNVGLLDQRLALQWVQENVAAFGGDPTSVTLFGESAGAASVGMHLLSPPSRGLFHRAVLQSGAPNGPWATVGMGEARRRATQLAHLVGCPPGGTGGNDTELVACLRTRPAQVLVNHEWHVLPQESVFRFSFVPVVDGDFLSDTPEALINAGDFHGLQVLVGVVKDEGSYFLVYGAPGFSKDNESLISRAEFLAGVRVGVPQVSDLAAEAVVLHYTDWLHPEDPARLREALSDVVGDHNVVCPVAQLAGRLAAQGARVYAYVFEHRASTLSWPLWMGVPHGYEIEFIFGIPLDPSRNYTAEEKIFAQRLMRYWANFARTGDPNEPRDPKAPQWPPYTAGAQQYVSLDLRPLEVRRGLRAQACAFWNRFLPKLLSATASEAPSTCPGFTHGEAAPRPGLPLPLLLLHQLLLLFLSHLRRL
Assay: Ellman cholinesterase assay, human erythrocyte ghost AChE
Type: biochemical
Details: human erythrocyte ghosts, 10 min preincubation; read-out: IC50 HsAChE
Property name: IC50 (µM)
Output spec: scalar in µM, unitless text.

[ask] # IC50 lookup, item c1ccc(-c2c3c(cc4ccccc24)C[N+]2(CCCC2)C3)cc1
[reply] 512

[ask] # IC50 lookup, item COc1c2c(cc3c1[C@H](CC(=O)c1cc4c(cc1C)C(C)(C)[C@@H](C)C4(C)C)[N+](C)(C)CC3)OCO2
[reply] 37.5

[ask] # IC50 lookup, item C[N+]1(Cc2ccc(-c3nnc(-c4ccc([N+](=O)[O-])cc4)o3)cc2)CCc2[nH]c3ccccc3c2C1 (stereo not shown)
[reply] 1.69

[ask] # IC50 lookup, item CCCC[N+]1(CC#CC2(O)c3ccccc3-c3ccccc32)CCC(c2ccccc2)C1 (stereo not shown)
[reply] 92.1

* * *

Molecular target: BChE from Equus ferus (EfBChE) (Equus caballus)
Test: Ellman cholinesterase assay, purified BChE from Equus ferus
Format: biochemical
Conditions: purified BChE 0.05 U/mL, 10 min preincubation, butyrylthiocholine 0.8 mM; read-out: IC50 EcBChE
Experimental: The compounds selected as inhibitors of AChE activity were obtained commercially from MolPort (http://www.molport.com/buy-chemicals/index). They were dissolved in dimethyl sulfoxide (DMSO), at a final concentration of 0.1%. The cholinesterase activities were measured based on Ellman et al.'s method. The increase of absorbance was monitored at 412 nm in a reaction mixture containing 10 mM potassium phosphate buffer, pH 7.4, and 1 mM DTNB [5,5′-dithiobis-(2-nitrobenzoic) acid] […]
Provide the recorded IC50 for the entries that follow.
Output spec: scalar in µM, unitless text.

[ask] # IC50 lookup, item C[N+]1(Cc2ccc(-c3nnc(-c4ccc([N+](=O)[O-])cc4)o3)cc2)CCc2[nH]c3ccccc3c2C1 (stereo not shown)
[reply] 5.64

[ask] # IC50 lookup, item c1ccc(-c2c3c(cc4ccccc24)C[N+]2(CCCC2)C3)cc1
[reply] 12.7

[ask] # IC50 lookup, item COc1c2c(cc3c1[C@H](CC(=O)c1cc4c(cc1C)C(C)(C)[C@@H](C)C4(C)C)[N+](C)(C)CC3)OCO2
[reply] 4.02

[ask] # IC50 lookup, item CCCC[N+]1(CC#CC2(O)c3ccccc3-c3ccccc32)CCC(c2ccccc2)C1 (stereo not shown)
[reply] 0.75

* * *

Molecular target: AChE from Danio rerio (DrAChE) (Danio rerio)
Construct: zebrafish brains were homogenized on ice in 60 volumes (v/w) of Tris-citrate buffer; from tissue; host or cells: zebrafish brain homogenate
Test: Ellman cholinesterase assay, zebrafish brain homogenate AChE
Assay type: biochemical
Settings: zebrafish brain homogenate 0.5 μg protein, 10 min preincubation; read-out: IC50 DrAChE
Property name: pIC50
Keep in mind that pIC50 stands for -log10 of concentration in molar terms.

[ask] # pIC50 lookup, item c1ccc(-c2c3c(cc4ccccc24)C[N+]2(CCCC2)C3)cc1
[reply] 4.58

[ask] # pIC50 lookup, item C[N+]1(Cc2ccc(-c3nnc(-c4ccc([N+](=O)[O-])cc4)o3)cc2)CCc2[nH]c3ccccc3c2C1 (stereo not shown)
[reply] 5.64

[ask] # pIC50 lookup, item CCCC[N+]1(CC#CC2(O)c3ccccc3-c3ccccc32)CCC(c2ccccc2)C1 (stereo not shown)
[reply] 3.62

[ask] # pIC50 lookup, item COc1c2c(cc3c1[C@H](CC(=O)c1cc4c(cc1C)C(C)(C)[C@@H](C)C4(C)C)[N+](C)(C)CC3)OCO2
[reply] 4.67

* * *

Biological target: AChE from human erythrocytes (HsAChE) (Homo sapiens)
Construct: from tissue; host or cells: human erythrocyte ghosts from blood of healthy donors
Assay: Ellman cholinesterase assay, human erythrocyte ghost AChE
Assay type: biochemical
Property name: pIC50
Keep in mind that pIC50 stands for -log10 of concentration in molar terms.

[ask] # pIC50 lookup, item O=c1ccc2ccc(OCC[N+]34CCC(CC3)C(C(O)(c3ccccc3)c3ccccc3)C4)cc2o1 (stereo not drawn)
[reply] 4.88

[ask] # pIC50 lookup, item C[N+]1(C)CCC2(CC1)Oc1ccccc1C1CC(c3ccc(-c4ccccc4)cc3)=NN12 (stereo not drawn)
[reply] 3.82

[ask] # pIC50 lookup, item C[N+]1(C)CCC2(CC1)Oc1ccccc1C1CC(c3ccc4ccccc4c3)=NN12 (stereo not drawn)
[reply] 4.15

* * *

Molecular target: AChE from Danio rerio (DrAChE) (Danio rerio, UniProt Q9DDE3)
Construct: zebrafish brains were homogenized on ice in 60 volumes (v/w) of Tris-citrate buffer; from tissue; host or cells: zebrafish brain homogenate
Sequence (Q9DDE3 24-634): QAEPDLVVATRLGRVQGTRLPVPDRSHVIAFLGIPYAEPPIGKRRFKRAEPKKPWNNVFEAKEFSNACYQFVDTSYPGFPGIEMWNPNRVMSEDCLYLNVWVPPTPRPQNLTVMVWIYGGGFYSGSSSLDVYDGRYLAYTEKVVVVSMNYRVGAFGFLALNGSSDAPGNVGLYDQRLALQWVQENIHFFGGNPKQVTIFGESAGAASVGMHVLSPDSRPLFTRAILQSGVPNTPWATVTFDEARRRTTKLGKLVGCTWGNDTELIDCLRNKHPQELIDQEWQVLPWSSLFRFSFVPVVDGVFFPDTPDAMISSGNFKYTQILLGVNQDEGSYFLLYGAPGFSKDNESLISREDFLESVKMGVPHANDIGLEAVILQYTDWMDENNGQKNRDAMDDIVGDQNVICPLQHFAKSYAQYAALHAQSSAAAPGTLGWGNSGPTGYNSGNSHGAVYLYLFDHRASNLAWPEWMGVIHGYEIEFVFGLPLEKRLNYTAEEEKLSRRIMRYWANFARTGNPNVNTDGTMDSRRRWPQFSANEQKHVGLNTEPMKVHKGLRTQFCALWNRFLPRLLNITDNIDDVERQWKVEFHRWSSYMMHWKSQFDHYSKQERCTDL
Assay: Ellman cholinesterase assay, zebrafish brain homogenate AChE
Format: biochemical
Property name: IC50 (µM)
Output spec: scalar in µM, unitless text.

[ask] # IC50 lookup, item O=c1ccc2ccc(OCC[N+]34CCC(CC3)C(C(O)(c3ccccc3)c3ccccc3)C4)cc2o1 (stereo not drawn) [A]
[reply] 26.2

[ask] # IC50 lookup, item C[N+]1(C)CCC2(CC1)Oc1ccccc1C1CC(c3ccc(-c4ccccc4)cc3)=NN12 (stereo not drawn) [F]
[reply] 192

[ask] # IC50 lookup, item C[N+]1(C)CCC2(CC1)Oc1ccccc1C1CC(c3ccc4ccccc4c3)=NN12 (stereo not drawn) [G]
[reply] 49.8

* * *

Biological target: AChE from Electrophorus electricus (EeAChE) (Electrophorus electricus)
Sequence (O42275 24-633): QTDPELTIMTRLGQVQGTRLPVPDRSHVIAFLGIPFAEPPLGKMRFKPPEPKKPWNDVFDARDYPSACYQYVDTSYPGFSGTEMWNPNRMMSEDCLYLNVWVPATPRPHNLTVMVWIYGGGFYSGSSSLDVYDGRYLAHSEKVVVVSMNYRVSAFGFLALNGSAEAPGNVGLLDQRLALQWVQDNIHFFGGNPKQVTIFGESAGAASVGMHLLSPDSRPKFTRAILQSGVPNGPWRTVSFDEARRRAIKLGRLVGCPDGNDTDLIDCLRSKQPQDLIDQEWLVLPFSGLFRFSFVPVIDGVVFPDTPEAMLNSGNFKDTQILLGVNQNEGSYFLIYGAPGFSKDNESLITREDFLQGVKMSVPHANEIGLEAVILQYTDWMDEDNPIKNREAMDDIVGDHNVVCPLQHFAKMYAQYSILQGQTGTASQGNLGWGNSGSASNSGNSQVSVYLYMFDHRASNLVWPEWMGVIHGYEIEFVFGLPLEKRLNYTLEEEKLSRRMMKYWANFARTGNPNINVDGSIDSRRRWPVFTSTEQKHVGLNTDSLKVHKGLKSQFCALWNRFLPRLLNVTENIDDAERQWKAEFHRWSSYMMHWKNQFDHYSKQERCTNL
Test: Ellman cholinesterase assay, purified AChE from Electrophorus electricus
Type: biochemical
Details: purified EeAChE 0.05 U/ml, 10 min preincubation, acetylthiocholine 0.8 mM; read-out: IC50 EeAChE
Provide the recorded pIC50 for the entries that follow.
Keep in mind that pIC50 stands for -log10 of concentration in molar terms.

[ask] # pIC50 lookup, item COc1c2c(cc3c1[C@H](CC(=O)c1cc4c(cc1C)C(C)(C)[C@@H](C)C4(C)C)[N+](C)(C)CC3)OCO2
[reply] 3.24

[ask] # pIC50 lookup, item CCCC[N+]1(CC#CC2(O)c3ccccc3-c3ccccc32)CCC(c2ccccc2)C1 (stereo not shown)
[reply] 3.12

[ask] # pIC50 lookup, item c1ccc(-c2c3c(cc4ccccc24)C[N+]2(CCCC2)C3)cc1
[reply] 3.47

[ask] # pIC50 lookup, item C[N+]1(Cc2ccc(-c3nnc(-c4ccc([N+](=O)[O-])cc4)o3)cc2)CCc2[nH]c3ccccc3c2C1 (stereo not shown)
[reply] 5.27
